- ASSAY_TARGET: Mu-type opioid receptor (Cavia porcellus, UniProt P97266)
- Sequence (P97266 whole entry): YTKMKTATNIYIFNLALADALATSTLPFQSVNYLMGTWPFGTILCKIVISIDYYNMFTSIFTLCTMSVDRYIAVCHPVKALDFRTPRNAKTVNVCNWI
- PROTOCOL_DETAILS: Mu opioid receptor agonist activity as inhibition of electrically stimulated mysenteric plexus in guinea pig ileum
Labelling field: enter rule met if recorded IC50 is less than 500 nM. Enter rule not met if it equals or exceeds that cut-off.

Solved entries (count: 4):
>>> label("CSCC[C@H](NC(=O)[C@H](Cc1ccccc1)NC(=O)CNC(=O)[C@@H](C)NC(=O)[C@@H](N)Cc1ccc(O)cc1)C(N)=O")
"rule met"
>>> label("C[C@H]1[C@@H]2Cc3ccc(O)cc3[C@]1(C)CCN2C")
"rule met"
>>> label("CSCC[C@H](NC(=O)[C@H](Cc1ccccc1)NC(=O)CNC(=O)CNC(=O)C1CC2(C)c3cc(O)ccc3CC(C2C)N1C)C(N)=O (some centres not stated)")
"rule not met"
>>> label("CC1C2(C)CCN(C)C1(C(N)=O)Cc1ccc(O)cc12 (single isomer, unassigned; (-))")
"rule not met"

Continue with the next molecule.
For this molecule, is IC50 lower than 500 nM? CC1C2Cc3ccc(O)cc3C1(C)CC(C(N)=O)N2C (single isomer, unassigned; (-)) rule not met
